- TEST_METHOD_NOTES: Immunotoxin (SS1P) sensitization/mitigation study. Vehicle arm (DMEM) (AID 1159513)
- STATED_CONDITIONS: cell viability with vehicle (DMEM); series mostly up to 46.1 µM
Calls of active or inactive are those of the source. No rule for the calls is given here.
Just give me one of these, please: active, inactive

Here are 4 compounds together with their reported answers.
SMILES_RECORD: COc1ccc2c(c[n+](C)c3c4cc5c(cc4ccc23)OCO5)c1OC
CLASS_NAME: active
//
SMILES_RECORD: COc1ccc(-c2ccc3c(N4CCOC[C@H]4C)nc(N4CCOC[C@H]4C)nc3n2)cc1CO
CLASS_NAME: active
//
SMILES_RECORD: C=CC(=O)Nc1cccc(Oc2nc(Nc3ccc(N4CCN(C)CC4)cc3OC)ncc2Cl)c1
CLASS_NAME: active
//
SMILES_RECORD: O=S(=O)(N=Cc1c(O)ccc2ccccc12)c1cccs1
CLASS_NAME: inactive

Look up the recorded call for `CO[C@@H]1[C@H](N(C)C(=O)c2ccccc2)C[C@H]2O[C@]1(C)n1c3ccccc3c3c4c(c5c6ccccc6n2c5c31)C(=O)NC4` in this test.
active

====

- TEST_METHOD_NOTES: P-glycoprotein substrates identified in KB-3-1 adenocarcinoma cell line, qHTS therapeutic library screen (AID 1346986); also: nearly all actives have a fitted effect of over 60% in size
- STATED_CONDITIONS: KB-3-1 parental cells viability, CellTiter-Glo, 72 h; series mostly up to 44.5 µM
Results filed as inconclusive are left out. Calls of active or inactive are those of the source. The call rests on the fitted dose curve; in most records, active means well fitted inhibition curve with a large enough effect; inconclusive means small, poorly fitted or top-dose-only effect; inactive means no such curve, though single readings can be large or run the other way.
Just give me one of these, please: active, inactive

MOLECULE: Cc1ccccc1-n1c(Cn2ncc3c(N)ncnc32)nc2cccc(C)c2c1=O
CLASS_NAME: inactive
//
MOLECULE: COC1=C[C@@H]2[C@@H]3Cc4ccc(OC)c(O)c4[C@]2(CCN3C)CC1=O
CLASS_NAME: inactive
//
MOLECULE: CCc1c(C(=O)C(N)=O)c2c(OCC(=O)O)cccc2n1Cc1ccccc1
CLASS_NAME: inactive

Look up the recorded call for `CCCN1CCO[C@@H]2c3cc(O)ccc3OC[C@@H]21` in this test.
inactive

One more molecule: `O=C(O)C(Cl)Cl`
inactive

One more molecule: `CC(O)=C(C#N)C(=O)Nc1cc(Br)ccc1Br`
inactive

One more molecule: COc1ccc2c(c1)CN(C)CC2c1ccc(Cl)c(Cl)c1 (stereo not given)
inactive

One more molecule: `c1ccc2c(CN3CCNCC3)cccc2c1`
inactive

One more molecule: `CC(C)(C)c1cc(C=C(C#N)C#N)cc(Br)c1O`
active

One more molecule: `Oc1ccc2c3c1O[C@H]1c4[nH]c5c(c4C[C@@]4(O)[C@@H](C2)N(CC2CC2)CC[C@]314)C[C@@]1(O)[C@H]2Cc3ccc(O)c4c3[C@@]1(CCN2CC1CC1)[C@H]5O4`
inactive

One more molecule: `O=c1cccc2n1CC1CNC[C@H]2C1`
inactive

One more molecule: `CC(=O)N(C)c1cccc(-c2ccnc3c(C(=O)c4cccs4)cnn23)c1`
inactive

One more molecule: CC(C)(C)[C@]1(O)C[C@@H]2OC(=O)C[C@@]23C(=O)O[C@@H]2OC(=O)[C@H](O)C213 (stereo not given in full)
inactive

One more molecule: CCNC(=O)CC1N=C(c2ccc(Cl)cc2)c2cc(OC)ccc2-n2c(C)nnc21 (stereo not given)
inactive

One more molecule: CCC(=O)OC1CCC2C3CCC4=CC(=O)CC[C@@]4(C)C3CC[C@]12C (stereo not given in full)
inactive
